Tested on: Vero E6 infected with SARS-CoV-2
Assay Notes: SARS-CoV-2 infection rate relative to infected DMSO; higher = more infection, active = 60 or less
Study Conditions: 24 h
Select the correct class. Options are T = active, F = inactive and nothing else.

Solved cases (4 shown):
| Molecule | Assigned Category |
| --- | --- |
| Cc1ccc2c(c1CCC(=O)O)CC[C@@H](NS(=O)(=O)c1ccc(Cl)cc1)C2 [terutroban] (10 µM) | F |
| CC[C@@H](c1ccc(F)c(F)c1)n1c(C(=O)OC)c(-c2ccno2)[nH]c1=S (10 µM) | F |
| Oc1cc2c(cc1O)C(c1ccccc1)CNCC2 (stereo not given) (10 µM) | F |
| CN1CCN(c2ncc(-c3cc(Cl)cc(Cl)c3Cl)c(N)n2)CC1 [sipatrigine] (10 µM) | F |

Please state the recorded outcome for this molecule: Fc1ccc(-c2c3cccc(C(F)(F)F)c3nn2Cc2ccc(F)cc2Cl)cc1 (10 µM)
F

How was COc1ccc(NC(=O)c2ccc(-c3ccc(-c4noc(C)n4)cc3C)cc2)cc1OCCN(C)C (0.833333 µM) classified in this test?
T

Returns: the outcome recorded for CCOc1ccc(Cc2cc([C@]34OC[C@](CO)(O3)[C@@H](O)[C@H](O)[C@H]4O)ccc2Cl)cc1 [ertugliflozin] (10 µM) in this assay.
F

Just curious, what result did COc1ccc(C2(O)CCC(N3CC[C@@H](NC(=O)CNC(=O)c4cccc(C(F)(F)F)c4)C3)CC2)cn1 (stereo not given in full) (10 µM) get here?
F

Write down the call the test reported for this molecule. Item: Cc1c2oc3c(C)ccc(C(=O)N[C@@H]4C(=O)N[C@@H](C(C)C)C(=O)N5CCC[C@H]5C(=O)N(C)CC(=O)N(C)[C@@H](C(C)C)C(=O)O[C@@H]4C)c3nc-2c(C(=O)N[C@@H]2C(=O)N[C@@H](C(C)C)C(=O)N3CCC[C@H]3C(=O)N(C)CC(=O)N(C)[C@@H](C(C)C)C(=O)O[C@@H]2C)c(N)c1=O [actinomycin-d] (0.833333 µM)
F

What outcome does the record of this test show for O=C(Oc1cc(S(=O)(=O)c2ccccc2)ccc1[N+](=O)[O-])c1ccc(Cl)cc1 (10 µM) ?
F

So what was the verdict on CC(=O)N[C@@H](CS)C(=O)O [acetylcysteine] (10 µM) in this test?
F

Look up the recorded call for Oc1ccc(-c2nc(-c3ccc(F)cc3)c(-c3ccncc3)[nH]2)cc1 (10 µM) in this test.
F

Test call, this molecule: CCCN(CCC)[C@H]1CCc2ccc(O)cc2C1 [7-hydroxy-DPAT] (10 µM)
F

Give the logged outcome of this assay for the following molecule: Fc1ccc(CN2CCC(Nc3ccc(C(F)(F)F)nn3)CC2)cc1F (10 µM)
F

Record request — test call for CC(C)C[C@@H](NC(=O)[C@H](Cc1ccccc1)NC(=O)CNC(=O)[C@@H](C)NC(=O)[C@@H](N)Cc1ccc(O)cc1)C(=O)O (10 µM)
F
